- TEST: Single-dose pharmacokinetic study, artemether sublingual spray vs oral tablets
- Type: in vivo, human
- STATED_CONDITIONS: male, human, plasma, 30 mg, T2: single sublingual 30 mg Artemether sublingual spray, 3 mg per actuation; n = 16; mean ± SD; read-out: V/F apparent volume of distribution, Plasma Artemether
PARAMETER_MEASURED: Vd/F (L)
Your answer is read as L, so omit the unit and give the number.

Record CO[C@H]1O[C@@H]2O[C@@]3(C)CC[C@H]4[C@H](C)CC[C@@H]([C@H]1C)[C@@]24OO3 [Artemether] . Reported Vd/F: 1000

---

- TEST: Single-dose pharmacokinetic study, artemether sublingual spray vs oral tablets
- Format: in vivo, human
- STATED_CONDITIONS: male, human, plasma, 30 mg, T3: single sublingual 30 mg Artemether sublingual spray, 6 mg per actuation; n = 16; mean ± SD; read-out: V/F apparent volume of distribution, Plasma Artemether
PARAMETER_MEASURED: Vd/F (L)
Expressed in L, but write only the number.

# compound `CO[C@H]1O[C@@H]2O[C@@]3(C)CC[C@H]4[C@H](C)CC[C@@H]([C@H]1C)[C@@]24OO3` ; its Vd/F = 1010

---

- TEST: Solubility tests in Miglyol 810
- STATED_CONDITIONS: Miglyol 810, magnetic stirring; amount and volume per drug as in the block
PARAMETER_MEASURED: solubility in Miglyol

# COMPOUND, PARAMETER_MEASURED, TEST_VALUE
measured = [
    ("O=C1CC[C@@]2(O)[C@H]3Cc4ccc(O)c5c4[C@@]2(CCN3CC2CC2)[C@H]1O5 [Naltrexone Base]", "solubility in Miglyol", "sparingly soluble"),
    ("C=CCN1CC[C@]23c4c5ccc(O)c4O[C@H]2C(=O)CC[C@@]3(O)[C@H]1C5", "solubility in Miglyol", "sparingly soluble"),
]

---

- TEST: Single-dose pharmacokinetic study, artemether sublingual spray vs oral tablets
- Assay type: in vivo, human
- STATED_CONDITIONS: male, human, plasma, 30 mg, T2: single sublingual 30 mg Artemether sublingual spray, 3 mg per actuation; n = 16; mean ± SD; read-out: AUC0-12, Plasma Artemether
PARAMETER_MEASURED: AUC(0-t) (ng·h/mL)
Dear colleague, please return just the value in ng·h/mL, with no unit written.

Please fill in: AUC(0-t) reported for `CO[C@H]1O[C@@H]2O[C@@]3(C)CC[C@H]4[C@H](C)CC[C@@H]([C@H]1C)[C@@]24OO3` = 76.6

---

- TEST: Single-dose pharmacokinetic study, artemether sublingual spray vs oral tablets
- Type: in vivo, human
- STATED_CONDITIONS: male, human, plasma, 30 mg, T2: single sublingual 30 mg Artemether sublingual spray, 3 mg per actuation; n = 16; mean ± SD
PARAMETER_MEASURED: Tmax (h)
// return numeric value only (unit: h, not printed)

Sure, the documented Tmax for `CO[C@H]1O[C@@H]2O[C@@]3(C)CC[C@H]4[C@H](C)CC[C@@H]([C@H]1C)[C@@]24OO3` is 1.73

---

- TEST: Single-dose pharmacokinetic study, artemether sublingual spray vs oral tablets
- Format: in vivo, human
- STATED_CONDITIONS: male, human, plasma, other: sublingual, 30 mg, T3 (30 mg sublingual spray, 6 mg/actuation) vs T4 (30 mg oral tablets); ± S.D.; read-out: F-value FT3-T4 (relative bioavailability of artemether)
PARAMETER_MEASURED: bioavailability (%)
Hi! Could you send only the number? It should be in %, unit omitted.

Value of measured bioavailability for the entry `CO[C@H]1O[C@@H]2O[C@@]3(C)CC[C@H]4[C@H](C)CC[C@@H]([C@H]1C)[C@@]24OO3` : 209

Taken from patent US20120058158A1.
